B1: library; numbered along this chain (parent)
chain: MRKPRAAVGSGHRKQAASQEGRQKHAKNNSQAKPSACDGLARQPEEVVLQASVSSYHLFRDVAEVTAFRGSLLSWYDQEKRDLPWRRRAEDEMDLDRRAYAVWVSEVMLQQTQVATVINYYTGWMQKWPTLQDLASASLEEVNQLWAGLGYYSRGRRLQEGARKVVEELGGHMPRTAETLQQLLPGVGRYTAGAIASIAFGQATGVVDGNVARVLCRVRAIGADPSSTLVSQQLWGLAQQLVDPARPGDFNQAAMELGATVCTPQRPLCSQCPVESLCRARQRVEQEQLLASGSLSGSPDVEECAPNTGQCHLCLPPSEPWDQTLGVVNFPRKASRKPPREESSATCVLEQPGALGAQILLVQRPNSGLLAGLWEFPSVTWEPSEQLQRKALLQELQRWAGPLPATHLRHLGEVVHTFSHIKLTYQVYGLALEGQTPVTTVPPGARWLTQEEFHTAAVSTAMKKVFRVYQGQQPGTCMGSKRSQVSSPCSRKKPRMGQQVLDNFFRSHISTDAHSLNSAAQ

# Variants of: B1
# Experimental Protocol: 8OG:A repair function score (normalized; synonymous = 0, nonsense = -1) (normalized log-likelihood score); higher = more repair activity (WT-like);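 also: cells sorted at 72 h after reporter transfection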
# Experimental Parameters: with 8OG:A DNA repair reporter (GFP) in HEK-293 MUTYH KO cells
Use -0.3 as the dividing line for 8OG:A repair function score, with the line itself on the MET side and lower values as NOT MET.

Task: Hello, I need to know if W381P has measured 8OG:A repair function score not below -0.3. Thanks!
Result: MET

Task: Does 8OG:A repair function score meet or surpass -0.3 for R467H ?
Result: MET

Task: Determine whether measured 8OG:A repair function score meets or exceeds -0.3 for T116L
Result: MET

Task: Check this variant for 8OG:A repair function score at or above -0.3: A461P
Result: MET

Task: Item P299W with 8OG:A repair function score of -0.3 or above?
Result: MET

Task: Test whether the variant S74V records 8OG:A repair function score of -0.3 or higher.
Result: MET

Task: # bool: 8OG:A repair function score of C216K >= -0.3
Result: NOT MET

Task: Could you tell me if the measured 8OG:A repair function score of E385N reaches -0.3 or more?
Result: MET

Task: Decide: is the reported value of 8OG:A repair function score for E395D equal to or greater than -0.3?
Result: MET

Task: Decide: is the reported value of 8OG:A repair function score for P264M equal to or greater than -0.3?
Result: MET

Task: Has S71W a recorded 8OG:A repair function score greater than or equal to -0.3?
Result: MET

Task: For this variant, is measured 8OG:A repair function score -0.3 or higher? P331F
Result: NOT MET

Task: Please check the record P306Q and state if its 8OG:A repair function score is at or above -0.3.
Result: MET

Task: State whether the measured 8OG:A repair function score reaches -0.3, counting equality as reaching it, for Q232C
Result: MET

Task: Hi, just wondering whether G188D shows 8OG:A repair function score of -0.3 or higher.
Result: NOT MET

Task: Item T424Q with 8OG:A repair function score of -0.3 or above?
Result: NOT MET

Task: Say whether A192S shows 8OG:A repair function score of -0.3 or more.
Result: MET

Task: Does E350R have a reported 8OG:A repair function score of at least -0.3?
Result: MET

Task: Given L313G , state whether its 8OG:A repair function score is at least -0.3.
Result: NOT MET

Task: Check if 8OG:A repair function score >= -0.3 (inclusive). Item: G170R
Result: MET

Task: I'd appreciate it if you could say whether C304D has 8OG:A repair function score at least equal to -0.3.
Result: NOT MET

Task: // inclusive: 8OG:A repair function score at least -0.3? input: R189D
Result: MET
